# System: human monoclonal nicotine-specific antibody N038, scFv-Fc fusion (scFv SEQ ID NO:72; HCVR SEQ ID NO:47, LCVR SEQ ID NO:49)
# Experimental Parameters: read-out: Dissociation constant Kd, (S)-(-)-nicotine; scFv-Fc 5.4 µg/ml in PBS/2% BSA; tritium-labeled (S)-(-)-nicotine 3 to 444 nM; 48-72 h; mean ± SD of at least 2 independent experiments
Result Type: pKd
Scale note: pKd = -log10(concentration in M).

Recorded pKd (compound CN1CCC[C@H]1c1cccnc1 [(S)-(-)-nicotine] ): 6.16

* * *

# System: human monoclonal nicotine-specific antibody J004, scFv-Fc fusion (scFv SEQ ID NO:64; HCVR SEQ ID NO:33, LCVR SEQ ID NO:35)
# Experimental Parameters: read-out: Dissociation constant Kd, (S)-(-)-nicotine; scFv-Fc 5.4 µg/ml in PBS/2% BSA; tritium-labeled (S)-(-)-nicotine 3 to 444 nM; 48-72 h; mean ± SD of at least 2 independent experiments
Result Type: Kd (nM)
Numbers only here, please. The scale is nM.

Form field Kd, entry CN1CCC[C@H]1c1cccnc1 [(S)-(-)-nicotine] : 33.3

* * *

# System: human monoclonal nicotine-specific antibody IgG2-N049 (HCVR SEQ ID NO:39, LCVR SEQ ID NO:41)
# Experimental Parameters: read-out: Dissociation constant Kd, (S)-(-)-nicotine; IgG2 7.5 µg/ml in PBS/2% BSA; tritium-labeled (S)-(-)-nicotine 3 to 444 nM; 48-72 h; mean ± SD of at least 2 independent experiments
Result Type: Kd
Please state the value followed by its unit.

Short answer for CN1CCC[C@H]1c1cccnc1 [(S)-(-)-nicotine] : Kd was 35.6 nM

* * *

# System: human monoclonal nicotine-specific antibody IgG2-J042 (HCVR SEQ ID NO:28, LCVR SEQ ID NO:37)
# Experimental Parameters: read-out: Dissociation constant Kd of antibody-(R)-(+)-nicotine interaction; competition with 111 nM tritium-labeled (S)-(-)-nicotine; unlabeled (R)-(+)-nicotine 1 nM to 100 µM; one-site competition model
Result Type: Kd
Number first, unit second.

Noted for CN1CCC[C@@H]1c1cccnc1 [(R)-(+)-nicotine] : its Kd reads 7.7 nM

* * *

# System: human monoclonal nicotine-specific antibody IgG2-J004 (HCVR SEQ ID NO:33, LCVR SEQ ID NO:35)
# Experimental Parameters: read-out: Dissociation constant Kd, (S)-(-)-nicotine; IgG2 7.5 µg/ml in PBS/2% BSA; tritium-labeled (S)-(-)-nicotine 3 to 444 nM; 48-72 h; mean ± SD of at least 2 independent experiments
Result Type: Kd (nM)
Kindly answer with a numeric value in nM, unit omitted.

Documented Kd of CN1CCC[C@H]1c1cccnc1 [(S)-(-)-nicotine] : 64.5

* * *

# System: human monoclonal nicotine-specific antibody IgG2-J004 (HCVR SEQ ID NO:33, LCVR SEQ ID NO:35)
# Experimental Parameters: read-out: Dissociation constant Kd of antibody-(R)-(+)-nicotine interaction; competition with 111 nM tritium-labeled (S)-(-)-nicotine; unlabeled (R)-(+)-nicotine 1 nM to 100 µM; one-site competition model
Result Type: pKd
Reminder that pKd means the negative base-10 logarithm of the concentration expressed in mol/L.

Per the record, CN1CCC[C@@H]1c1cccnc1 [(R)-(+)-nicotine] has pKd of 7.90
